system: SK-MEL-28 melanoma; experiment: NCI tumour cell line growth inhibition, 48 h

{"columns": ["Smiles repr", "GI50"],
 "data": [
  ["O=S(=O)(NC1=NCCN1C(=S)SN1CCn2c1nsc2=S)c1ccc(OC(F)(F)F)cc1", "22.7 µM"],
  ["NC(=O)c1cccc2cn(-c3ccc([C@@H]4CCCNC4)cc3)nc12", "16.3 µM"],
  ["NC(=O)c1sc(-n2cnc3ccccc32)cc1OCc1ccccc1Br", "> 25 µM"],
  ["O=C([O-])CC(=O)[O-].O=C([O-])CC(=O)[O-].[K+].[Pd+2]", "> 100 µM"],
  ["C#Cc1ccc(-n2c(/C=C/c3ccc(C(F)(F)F)cc3)nc3ncccc3c2=O)cc1", "1.78 µM"],
  ["COc1ccc2c(c1)/C(=C/c1c(C)nc3sc(C)nn13)C(=O)N2", "5.29 µM"]
]}

Source of measurements: PubChem BioAssay (NCI)
